Assign GI50 to each entry below.
tested on: CAKI-1; test: NCI tumour cell line growth inhibition, 48 h
Active and inactive are the calls of the source. Cut-off read from the data, not from the text of the source: active = GI50 up to about 1.1 µM and inactive = higher.

Sure, the documented GI50 for CN(C)CCCNc1c2c(=O)n(C)c(=O)nc-2n(C)c2ccccc12 is 7.13 µM (inactive)

Sure, the documented GI50 for c1ccc2cc(C3NCCc4nc[nH]c43)ccc2c1 (stereo not drawn) is 60.3 µM (inactive)

Sure, the documented GI50 for Fc1ccc2c(c1)SC1=Nc3sc4cc(F)ccc4[n+]3CN12 is 14.9 µM (inactive)

###

system: Malme-3M; test: NCI tumour cell line growth inhibition, 48 h
Calls of active or inactive are those of the source. Cut-off read from the data, not from the text of the source: active = GI50 up to about 1.1 µM and inactive = higher.
MEASURED PARAMETER: GI50

GET /values?item= Fc1ccc2c(c1)SC1=Nc3sc4cc(F)ccc4[n+]3CN12 &system= Malme-3M returns GI50: 18.7 µM (inactive)

GET /values?item= Cc1cc(S(=O)(=O)Nc2n[nH]c(Nc3ccccc3)n2)c(S)cc1Cl &system= Malme-3M returns GI50: > 10 µM (inactive)

GET /values?item= CN(C)CCNC(=O)c1ccc(Cl)c2c(Nc3ccc(S(N)(=O)=O)cc3)c3ccccc3nc12 &system= Malme-3M returns GI50: 3.46 µM (inactive)

GET /values?item= C=CCC(O)c1cc(OC)ccc1OC (centres undefined) &system= Malme-3M returns GI50: > 100 µM (inactive)

GET /values?item= COc1cc(O)c2c(c1)C(O)C(O)CC1OC1C(=O)/C=C/CC(C)OC2=O (centres undefined) &system= Malme-3M returns GI50: 0.029 µM (active)

GET /values?item= CCCCCCCCCCCCCCCCNc1nc(=O)n(C2OC(C)C(O)C2O)cc1F (centres undefined) &system= Malme-3M returns GI50: 23.1 µM (inactive)

GET /values?item= O=C(O)C1=Cc2cccc3cccc(c23)C1=O &system= Malme-3M returns GI50: > 100 µM (inactive)

GET /values?item= O=C1C(=CNc2ccccc2Cl)C(=O)N(c2ccccc2)C(=O)N1c1ccccc1 &system= Malme-3M returns GI50: > 100 µM (inactive)

GET /values?item= c1ccc(C2=NCCc3cc4c(cc32)OCO4)cc1 &system= Malme-3M returns GI50: > 100 µM (inactive)

###

tested on: OVCAR-3; experiment: NCI tumour cell line growth inhibition, 48 h
Active and inactive are the calls of the source. Cut-off read from the data, not from the text of the source: active = GI50 up to about 1.1 µM and inactive = higher.
Outcomes you can answer with include only these: Yes (active), No (inactive)

Please state the recorded outcome for this molecule: CC12C=CC(=O)C=C1CCC1C3CCC(O)(C(=O)CO)C3(C)CC(O)C12F (configuration not stated)
No

Please state the recorded outcome for this molecule: CC1=C(C(=O)Nc2ccccc2C)C(c2ccco2)C(C(=O)Nc2ccccc2C)=C(C)N1C
No

Please state the recorded outcome for this molecule: CCOC(=O)c1c(C)n(-c2ccc(C)cc2)c(=O)c2ccccc2c(=O)c2c(=O)ccc(=O)c1=2
No

Please state the recorded outcome for this molecule: Cc1ccc(/C=C2\CCCC(C(NO)c3ccc(C)cc3)C2=NO)cc1 (configuration not stated)
No

Please state the recorded outcome for this molecule: COc1cccc(OC)c1NC(=O)C(=O)Nn1c(NNC(=O)c2ccncc2)nc2ccccc2c1=O
No

Please state the recorded outcome for this molecule: CCNC(=S)N/N=C(/C)c1cccc(/C(C)=N\NC(=S)NCC)n1
Yes

Please state the recorded outcome for this molecule: CCC(C(=O)C(=O)OC)P1(=O)OC(C)(C)CN1C(C)(C)C (configuration not stated)
No
